Source: patent US8901133B2

target: PI3Kγ (Homo sapiens)
Sequence (P48736 whole entry): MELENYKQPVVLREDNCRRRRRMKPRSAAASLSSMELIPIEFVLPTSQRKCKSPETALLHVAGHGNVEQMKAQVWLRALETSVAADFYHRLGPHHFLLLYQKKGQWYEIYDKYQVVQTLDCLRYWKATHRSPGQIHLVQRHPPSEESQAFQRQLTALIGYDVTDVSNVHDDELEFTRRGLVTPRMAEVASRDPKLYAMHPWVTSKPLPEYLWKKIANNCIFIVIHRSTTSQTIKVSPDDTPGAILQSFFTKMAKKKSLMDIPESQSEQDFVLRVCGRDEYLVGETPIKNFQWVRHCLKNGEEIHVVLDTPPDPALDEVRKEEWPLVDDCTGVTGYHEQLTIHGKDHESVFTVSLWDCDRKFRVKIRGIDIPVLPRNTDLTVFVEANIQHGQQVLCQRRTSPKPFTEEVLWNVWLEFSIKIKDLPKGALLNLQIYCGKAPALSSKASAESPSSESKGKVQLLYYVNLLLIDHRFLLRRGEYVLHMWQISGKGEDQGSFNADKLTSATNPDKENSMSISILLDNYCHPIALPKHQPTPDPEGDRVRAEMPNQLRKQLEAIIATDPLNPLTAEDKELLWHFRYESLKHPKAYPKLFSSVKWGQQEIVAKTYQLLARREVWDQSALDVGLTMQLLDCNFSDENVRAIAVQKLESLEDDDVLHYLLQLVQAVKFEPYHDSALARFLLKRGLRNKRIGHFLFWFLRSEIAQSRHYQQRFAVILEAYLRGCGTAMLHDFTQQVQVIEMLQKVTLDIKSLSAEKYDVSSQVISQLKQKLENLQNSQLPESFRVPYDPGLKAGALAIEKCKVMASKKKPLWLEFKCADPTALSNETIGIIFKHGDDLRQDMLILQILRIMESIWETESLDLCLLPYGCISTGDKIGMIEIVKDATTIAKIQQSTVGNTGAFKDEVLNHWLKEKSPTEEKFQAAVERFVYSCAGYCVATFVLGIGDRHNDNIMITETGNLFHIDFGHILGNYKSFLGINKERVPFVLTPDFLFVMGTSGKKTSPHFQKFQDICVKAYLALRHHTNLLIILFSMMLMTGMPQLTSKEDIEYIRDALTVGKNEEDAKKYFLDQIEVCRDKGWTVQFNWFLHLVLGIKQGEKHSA
experimental.endpoint: IC50

C[C@H](Nc1ncnc2[nH]cnc12)c1cc2cccc(Cl)c2c(CCN2CCOCC2)n1 :: < 10000 nM
C[C@H](Nc1ncnc2[nH]cc(C(N)=O)c12)c1cc2cccc(Cl)c2c(C(=O)N2CCOCC2)n1 :: < 100 nM
C[C@H](Nc1ncnc2[nH]cnc12)c1cc2cccc(Cl)c2c([S+]([O-])CCN2CCOCC2)n1 (stereo partly drawn) :: < 1000 nM

* * *

biological target: UniProtKB P42338
Sequence (P42338 whole entry): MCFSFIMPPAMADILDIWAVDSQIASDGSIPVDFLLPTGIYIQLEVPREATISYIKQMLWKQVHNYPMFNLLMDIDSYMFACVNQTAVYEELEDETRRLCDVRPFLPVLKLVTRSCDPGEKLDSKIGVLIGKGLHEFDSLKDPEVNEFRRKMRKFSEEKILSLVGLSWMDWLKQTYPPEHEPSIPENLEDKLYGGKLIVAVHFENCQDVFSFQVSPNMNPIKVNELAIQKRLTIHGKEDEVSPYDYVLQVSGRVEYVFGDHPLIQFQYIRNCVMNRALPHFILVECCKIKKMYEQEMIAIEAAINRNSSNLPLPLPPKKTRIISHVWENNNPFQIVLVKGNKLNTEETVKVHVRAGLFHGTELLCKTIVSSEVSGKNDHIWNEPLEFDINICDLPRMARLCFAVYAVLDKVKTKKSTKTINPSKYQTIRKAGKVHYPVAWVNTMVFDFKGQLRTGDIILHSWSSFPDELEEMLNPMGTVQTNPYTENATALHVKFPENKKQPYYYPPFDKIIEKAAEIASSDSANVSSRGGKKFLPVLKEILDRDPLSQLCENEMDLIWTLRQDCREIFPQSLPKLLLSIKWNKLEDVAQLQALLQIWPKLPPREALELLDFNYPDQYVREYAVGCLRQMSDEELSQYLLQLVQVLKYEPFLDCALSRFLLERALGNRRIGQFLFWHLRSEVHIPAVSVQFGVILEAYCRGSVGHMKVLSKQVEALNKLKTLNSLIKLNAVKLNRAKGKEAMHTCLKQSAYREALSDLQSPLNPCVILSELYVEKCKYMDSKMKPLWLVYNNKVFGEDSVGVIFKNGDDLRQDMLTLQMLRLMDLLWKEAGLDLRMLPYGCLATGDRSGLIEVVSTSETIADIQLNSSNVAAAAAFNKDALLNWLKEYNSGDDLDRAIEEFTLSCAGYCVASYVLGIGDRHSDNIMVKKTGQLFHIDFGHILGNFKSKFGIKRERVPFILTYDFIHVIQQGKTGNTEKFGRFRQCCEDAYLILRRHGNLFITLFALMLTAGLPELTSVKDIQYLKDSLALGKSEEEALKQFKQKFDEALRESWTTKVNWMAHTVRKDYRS
Sequence (P27986 whole entry partner): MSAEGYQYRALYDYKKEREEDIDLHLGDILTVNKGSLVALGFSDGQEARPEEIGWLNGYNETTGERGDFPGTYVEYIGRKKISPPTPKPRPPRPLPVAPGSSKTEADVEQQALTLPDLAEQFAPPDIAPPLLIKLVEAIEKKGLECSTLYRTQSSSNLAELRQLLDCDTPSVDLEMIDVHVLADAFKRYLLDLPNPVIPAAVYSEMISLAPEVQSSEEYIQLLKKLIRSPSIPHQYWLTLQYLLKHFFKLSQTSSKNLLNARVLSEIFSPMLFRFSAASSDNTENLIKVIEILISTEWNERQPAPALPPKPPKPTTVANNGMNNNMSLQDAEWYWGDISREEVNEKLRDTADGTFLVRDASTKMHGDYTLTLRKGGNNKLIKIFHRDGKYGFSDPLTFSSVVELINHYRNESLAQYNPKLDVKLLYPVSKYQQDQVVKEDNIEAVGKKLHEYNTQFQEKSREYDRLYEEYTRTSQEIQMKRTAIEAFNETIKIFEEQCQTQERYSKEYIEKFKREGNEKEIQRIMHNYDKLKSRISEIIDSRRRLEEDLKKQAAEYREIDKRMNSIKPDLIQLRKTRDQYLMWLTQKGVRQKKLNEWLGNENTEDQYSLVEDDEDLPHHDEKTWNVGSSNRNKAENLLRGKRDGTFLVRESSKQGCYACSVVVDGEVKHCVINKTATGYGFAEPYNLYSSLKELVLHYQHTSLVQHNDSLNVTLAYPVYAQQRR
experimental.endpoint: IC50

C[C@H](Nc1ccnc2ccnn12)c1cc2cccc(Cl)c2c(C(=O)N2C3CCC2COC3)n1 :: < 10 µM
C[C@H](Nc1ncnc2scnc12)c1cc2cccc(Cl)c2c(C(=O)N2CCOC[C@H]2C)n1 :: < 10 µM
C[C@H](Nc1ncnc2cccnc12)c1cc2cccc(Cl)c2c(C(=O)N(C)C)n1 :: < 10 µM
C[C@H](Nc1ncnc2[nH]cnc12)c1cc2cccc(Cl)c2c(C(=O)N2CC(F)(F)C2)n1 :: > 10 µM
C[C@H](Nc1ncnc2scnc12)c1cc2cccc(Cl)c2c(C(=O)NCC2CCOCC2)n1 :: > 10 µM
CCN1CCC(NC(=O)c2nc([C@H](C)Nc3ncnc4scnc34)cc3cccc(Cl)c23)CC1 :: < 10 µM
C[C@H](Nc1ncnc2cccnc12)c1cc2cccc(Cl)c2c(C(=O)N2CCS(=O)(=O)CC2)n1 :: > 10 µM
C[C@H](Nc1ncnc2[nH]cnc12)c1cc2cccc(-c3cccnc3)c2c(Cl)n1 :: > 10 µM
C[C@H](Nc1ccnc2ccnn12)c1cc2cccc(Cl)c2c(N2CCN(C)CC2)n1 :: < 10 µM
C[C@H](Nc1ncnc2[nH]cnc12)c1cc2cccc(Cl)c2c(SCCN2CCOCC2)n1 :: < 1 µM
C[C@H](Nc1ncnc2cccnc12)c1cc2cccc(Cl)c2c(C(=O)N2CCC(O)CC2)n1 :: > 10 µM
C[C@H](Nc1ncnc2scnc12)c1cc2cccc(Cl)c2c(C(=O)N2CCCCC2)n1 :: < 1 µM
